# credit: PubChem BioAssay

method_notes: drug combination growth inhibition, ovarian cancer – cell-based, oncology-focused library, rucaparib conditional, profiling panel (AID 1508598)
condition_summary: patient-derived ovarian cancer cells, CellTiter-Glo viability, 144 h; at 1.25 µM; OCI-C5x cells; with rucaparib 10 µM; hits give low values; 100% = cells with rucaparib alone
measurement_type: viability (%)
Numbers only, in %.

Before answering, review these 5 worked examples.
[[record]]
smiles_text = "C=CC(=O)Nc1cccc(Nc2nc(Nc3ccc(NC4CN(CCF)C4)cc3OC)ncc2C(F)(F)F)c1"
quantity_unit = "%"
observed_result = 119

[[record]]
smiles_text = "CN(C)Cc1c(C(=O)NCCOc2ccc(C(=O)NO)cc2)oc2ccccc12"
quantity_unit = "%"
observed_result = 135

[[record]]
smiles_text = "CN[C@H]1CN(c2ccc3c(=O)c(C(=O)O)cn(-c4nccs4)c3n2)C[C@@H]1OC"
quantity_unit = "%"
observed_result = 154

[[record]]
smiles_text = "Cn1cnc2c(F)c(Nc3ccc(Br)cc3Cl)c(C(=O)NOCCO)cc21"
quantity_unit = "%"
observed_result = 84

[[record]]
smiles_text = "CC(C)OC(=O)C1=CN(C(=O)c2ccc(F)c(F)c2)CC(C)(C)c2c1[nH]c1ccccc21"
quantity_unit = "%"
observed_result = 114


// input: 3 compounds below; output: viability for each
1. COc1cc2nccc(Oc3ccc(NC(=O)Nc4cc(C)on4)c(Cl)c3)c2cc1OC
2. Cc1nc2c(-c3cnc(N)nc3)nc(N3CCOCC3)nc2n1C(C)C
3. COc1ncc(-c2ccc3nccc(-c4ccnnc4)c3c2)cc1NS(=O)(=O)c1ccc(F)cc1F

Outgoing:
138
69.8
23.9

Take each entry in turn and give its viability.
1. C=CCn1c(=O)c2cnc(Nc3ccc(N4CCN(C)CC4)cc3)nc2n1-c1cccc(C(C)(C)O)n1
2. C[C@H](NC(=O)Cc1cc(F)cc(F)c1)C(=O)N[C@@H]1C(=O)N(C)c2ccccc2-c2ccccc21
3. COc1cc(Nc2ncc(F)c(Nc3ccc4c(n3)NC(=O)C(C)(C)O4)n2)cc(OC)c1OC
4. C#Cc1cccc(Nc2ncnc3cc(OCCOC)c(OCCO)cc23)c1
5. C[C@@H](Oc1cc(-n2cnc3ccc(CN4CCN(C)CC4)cc32)sc1C(N)=O)c1ccccc1C(F)(F)F
6. COC(=O)c1ccc2c(C(=Nc3ccc(N(C)C(=O)CN4CCN(C)CC4)cc3)c3ccccc3)c(O)[nH]c2c1
7. Cc1cnc(Nc2ccc(OCCN3CCCC3)cc2)nc1Nc1cccc(S(=O)(=O)NC(C)(C)C)c1
8. Nc1ccn([C@@H]2O[C@H](CO)[C@@H](O)C2(F)F)c(=O)n1

Outgoing:
54.7
142
116
78.3
38.1
124
93.7
33.1

I need viability for every entry listed below, if you could help.
1. Cc1ccc2c(=O)c3cccc(CC(=O)O)c3oc2c1C
2. CC(C)[C@H](C(=O)Nc1ccc(C(=O)NO)cc1)c1ccccc1

Outgoing:
[118, 10.3]
